Molecular target: human emopamil binding protein and human 7-dehydrocholesterol reductase (hEBP-DHCR7) (Homo sapiens (Human))
Sequence (Q15125 whole entry): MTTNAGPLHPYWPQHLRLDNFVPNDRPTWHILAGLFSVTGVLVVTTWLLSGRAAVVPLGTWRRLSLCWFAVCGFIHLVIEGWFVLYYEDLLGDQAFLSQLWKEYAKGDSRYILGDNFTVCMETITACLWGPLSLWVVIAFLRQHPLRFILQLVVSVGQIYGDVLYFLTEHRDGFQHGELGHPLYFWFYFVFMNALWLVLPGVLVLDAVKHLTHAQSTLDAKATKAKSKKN
Could you please report measured Ki for the items listed next?
Numbers only, in nM.

Completed entries (count: 3):
CC(C)n1nc(-c2ccc(C(F)(F)F)nc2)nc1[C@H]1CC[C@H](N2CCCOCC2)C1 ... 52.7
CC(C)n1nc(-c2ccc(C(F)(F)F)nc2)cc1[C@@H]1CC[C@H](N2CCN(CCO)CC2)C1 (single isomer, unassigned) ... 26.2
CC[C@H]1CN([C@@H]2CC[C@H](c3nc(-c4cnc(C(F)(F)F)nc4)nn3C(C)C)C2)CCO1 (single isomer, unassigned) ... 14.8

Switching to the query record.
Report Ki for `CC(C)n1nc(-c2cccc(C#N)c2)cc1[C@H]1[C@@H]2C[C@@H](N3CCCOCC3)C[C@@H]21`
12.6

----------
Molecular target: human emopamil binding protein and human 7-dehydrocholesterol reductase (hEBP-DHCR7) (Homo sapiens (Human))
ASSAY_READOUT: Ki (nM)
Answers are plain numbers, in nM.

Completed entries (count: 2):
CC(C)n1nc(-c2ccc(C#N)cc2)cc1[C@H]1[C@@H]2C[C@@H](N3CCCOCC3)C[C@@H]21 ... 30.6
CC(C)n1nc(-c2cncc(C(F)(F)F)c2)cc1[C@H]1[C@@H]2C[C@H](N3CCO[C@@H](C)C3)C[C@@H]21 (single isomer, unassigned) ... 22.6

Here are 5 compounds. What values of Ki were reported for them?
1. CC(C)n1nc(-c2cncc(OC(F)F)c2)nc1[C@H]1[C@@H]2C[C@@H](N3CCCOCC3)C[C@@H]21
2. CC[C@H]1CN([C@@H]2CC[C@@H](c3nc(-c4cnc(C(F)(F)F)nc4)nn3C(C)C)C2)CCO1
3. FC(F)(F)c1cccc(-c2nc([C@@H]3CC[C@@H](N4CCCOCC4)C3)n(C3CC3)n2)n1 (single isomer, unassigned)
4. CC(C)n1nc(-c2ccc(C(F)(F)F)nc2)nc1[C@@H]1CC[C@@H](N2CCCOCC2)C1
5. CC(C)n1nc(-c2cncc(C(F)(F)F)n2)cc1[C@H]1[C@@H]2C[C@H](N3CCOCC3)C[C@@H]21

[119, 465, 134, 32.4, 87.8]

Here are 2 compounds. What values of Ki were reported for them?
1. CC(C)n1nc(-c2ccnc(C(F)(F)F)n2)cc1[C@H]1[C@@H]2C[C@H](N3CCOC[C@@H]3C)C[C@@H]21
2. CC(C)n1nc(-c2cncc(C(F)(F)F)n2)cc1[C@H]1[C@@H]2C[C@@H](N3CCOCC3)C[C@@H]21

1: 7.22; 2: 11.7

Here are 3 compounds. What values of Ki were reported for them?
1. CC(C)n1nc(-c2cccc(OC(F)F)c2)cc1[C@H]1[C@@H]2C[C@@H](N3CCCOCC3)C[C@@H]21 (single isomer, unassigned)
2. CC(C)n1nc(-c2cncc(C(F)(F)F)c2)nc1[C@H]1[C@@H]2C[C@@H](N3CCOC[C@@H]3C)C[C@@H]21
3. CC(C)n1nc(-c2ccnc(C(F)(F)F)n2)cc1[C@H]1[C@@H]2C[C@H](N3CCOCC3)C[C@@H]21

11.6
564
87.8

Report Ki for CC(C)n1nc([C@H]2CC[C@H](C(F)(F)F)CC2)nc1[C@H]1[C@@H]2C[C@H](N3CCOC[C@H]3C)C[C@@H]21 (single isomer, unassigned)
1640
